- Assay Notes: doxorubicin toxicity protection in MRP-1 cells – H69AR cells, CellTiter-Glo, duplicate, MRP-1 activator project, pilot screen (AID 807);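 also: compound pretreatment 18-22 h then 72 h combined with doxorubicin; 0% = doxorubicin alone and 100% = vehicle without doxorubicin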
- Experimental Parameters: H69AR viability with doxorubicin, CellTiter-Glo luminescence; at 10 µM; hits give high values
# viability increase per record follows

Compound: CC(=NCC1CCNCC1)C1=C(O)CC(C)(C)CC1=O
viability increase (%): -2.21
//
Compound: COc1ccc(-n2c(SCC(=O)Nc3nccs3)nc3c(c2=O)SCC3)cc1
viability increase (%): -3.87
//
Compound: C(=N\n1cnnc1)/c1cccc(OCCOc2ccccc2)c1
viability increase (%): 0.62
//
Compound: CCCCCn1c(CN2CCN(C(=O)c3ccco3)CC2)nc2c1c(=O)n(C)c(=O)n2C
viability increase (%): -2.57
//
Compound: CCOC(=O)Nc1sc(NS(=O)(=O)c2ccccc2)nc1C
viability increase (%): -0.61
//
Compound: Fc1ccc(CN2CCCCCCC2)cc1F
viability increase (%): -3.13
//
Compound: COc1ccc(CCn2c(-c3ccco3)nc3ccccc3c2=O)cc1OC
viability increase (%): -3.68
//
Compound: CCn1c(SCC(=O)Nc2cc(C)ccc2C)nc2c(c1=O)SC(C)C2 (stereo unspecified)
viability increase (%): -4.15
//
Compound: COc1cccc(C2C(C(=O)c3ccc(C)o3)=C(O)C(=O)N2CCCN(C)C)c1 (stereo unspecified)
viability increase (%): -1.16
//
Compound: COc1ccc(N(CC(=O)O)S(=O)(=O)c2ccc(OC)c(OC)c2)cc1
viability increase (%): -1.32
//
Compound: Cc1cc(C)n(-c2cc(N3CCOCC3)ncn2)n1
viability increase (%): -1.2
//
Compound: Cc1nc2c(-c3ccc(F)cc3)c(C)nn2c(C)c1CCC(=O)NC(C)CCc1ccco1 (stereo unspecified)
viability increase (%): -1.56
//
Compound: CCN(C(=O)c1cc(Cl)ccc1OC)c1ccccc1
viability increase (%): -2.05
//
Compound: Cc1ccc(C)c2[nH]c(=O)c(CCNC(=O)c3cc4ccccc4o3)cc12
viability increase (%): 1.81
//
Compound: O=C(NCCc1cccc(Cl)c1)c1cccnc1
viability increase (%): -0.51
//
Compound: CC(=O)Nc1nnc(SCC(=O)NCC2CCCO2)s1 (stereo unspecified)
viability increase (%): -1.36
//
Compound: CCCOCCOC(=O)c1[nH]c2c(c1C)C(=O)CC(c1cc(OC)ccc1OC)C2 (stereo unspecified)
viability increase (%): -4.21
//
Compound: O=C(Nc1ccc(F)cc1)C1CCC(N2C(=O)c3ccccc3C2=O)CC1 (stereo unspecified)
viability increase (%): -7.05
//
Compound: CC1CCN(c2c(NCc3ccc(C(=O)N4c5ccccc5CC4C)cc3)c(=O)c2=O)CC1 (stereo unspecified)
viability increase (%): -7.24
//
Compound: CN(C)c1oc(-c2ccccc2F)nc1C#N
viability increase (%): -0.62
//
Compound: Cc1ccc(OCC(=O)NCc2ccccn2)c(Br)c1
viability increase (%): -1.45
//
Compound: COc1ccccc1NC(=O)C1CCCN(S(=O)(=O)c2cnc[nH]2)C1 (stereo unspecified)
viability increase (%): -0.26
//
Compound: O=C(C1CCCN(S(=O)(=O)c2cccnc2)C1)N1CCn2c1nc1ccccc12 (stereo unspecified)
viability increase (%): 0.72
//
Compound: COc1ccc(OC)c2[nH]c(=O)c(CCNC(=O)C(C)C)cc12
viability increase (%): -0.71
//
Compound: Cc1nc(Sc2nnnn2-c2ccccc2)c(C#N)c(C)c1C
viability increase (%): -2.52
//
Compound: COc1ccc(S(=O)(=O)Cc2ccc(C(=O)N3CCN(c4ccccc4)CC3)o2)cc1
viability increase (%): -2.99
//
Compound: CCN(CC)CCn1c(=N)n(CCO)c2ccccc21
viability increase (%): -0.4
//
Compound: CC1=C(C(=O)OC2CCCCCC2)C(c2ccc(C)o2)C2=C(CCCC2=O)N1 (stereo unspecified)
viability increase (%): -2
//
Compound: O=C(c1nnc(Cc2ccc(Cl)cc2)o1)N1CCc2ccccc2C1
viability increase (%): 3.24
//
Compound: CC1CCC(NC(=O)C2(C)CCC(=O)N2Cc2cccnc2)CC1 (stereo unspecified)
viability increase (%): 1.23
//
Compound: CS(=O)(=O)Nc1ccccc1C(=O)O
viability increase (%): -1.2
//
Compound: CCOC(=O)c1ccc(NS(=O)(=O)c2ccc3c(c2)oc(=O)n3C)cc1
viability increase (%): 1.82
//
Compound: Cc1ccc(C(=O)Nc2ccc(Cl)cn2)cc1S(=O)(=O)N1CCOCC1
viability increase (%): 1.52
//
Compound: O=C1CC(NCc2ccc3c(c2)OCO3)C(=O)N1CCc1ccccc1 (stereo unspecified)
viability increase (%): -2.06
//
Compound: Cc1ccc(OCC(O)CN2C(=O)NC(C)(C)C2=O)cc1C (stereo unspecified)
viability increase (%): -0.62
//
Compound: COC(=O)c1nnc(-c2ccccc2)c(-c2ccccc2)n1
viability increase (%): -1.82
//
Compound: CCCOC(=O)CC1C(=O)NCCN1Cc1ccccc1C (stereo unspecified)
viability increase (%): -0.62
//
Compound: CCOCCCNC(=O)Cn1ncc2c(=O)oc3ccccc3c21
viability increase (%): -0.6
//
Compound: COc1ccc(OCCOC(=O)Nc2ccccc2)cc1
viability increase (%): 1.53
//
Compound: Cc1noc(C)c1S(=O)(=O)N1CCN(C(c2ccccc2)c2ccc(Cl)cc2)CC1 (stereo unspecified)
viability increase (%): 0.02
//
Compound: CC1(C)CC(=O)C(C=NCC2CCNCC2)=C(O)C1
viability increase (%): -1.11
//
Compound: CCOC(=O)N1CCN(C(=O)c2ccc3nc4ccsc4c(=O)n3c2)CC1
viability increase (%): -4.18
//
Compound: COc1ccc(N2C(=O)CC(c3ccc(OC(C)C)cc3)C2=O)cc1 (stereo unspecified)
viability increase (%): 1.46
//
Compound: CC(=O)NC(C)C(=O)OCC(=O)Nc1ccc(Br)cc1 (stereo unspecified)
viability increase (%): 0.09
//
Compound: Cc1ccc(-c2cc(C(F)F)nc(N3CCC(C)CC3)n2)cc1
viability increase (%): 1.95
//
Compound: O=C(O)CC(C(=O)Nc1cccc(C(F)(F)F)c1)C1CCCO1 (stereo unspecified)
viability increase (%): 1.01
